// reported inhibition for each item listed
target: Acetylcholinesterase (Homo sapiens) (UniProt P22303); experiment: Inhibition of human AChE at 10 uM using acetylthiocholine as substrate by spectrophotometric method relative to control
Sequence (P22303 whole entry): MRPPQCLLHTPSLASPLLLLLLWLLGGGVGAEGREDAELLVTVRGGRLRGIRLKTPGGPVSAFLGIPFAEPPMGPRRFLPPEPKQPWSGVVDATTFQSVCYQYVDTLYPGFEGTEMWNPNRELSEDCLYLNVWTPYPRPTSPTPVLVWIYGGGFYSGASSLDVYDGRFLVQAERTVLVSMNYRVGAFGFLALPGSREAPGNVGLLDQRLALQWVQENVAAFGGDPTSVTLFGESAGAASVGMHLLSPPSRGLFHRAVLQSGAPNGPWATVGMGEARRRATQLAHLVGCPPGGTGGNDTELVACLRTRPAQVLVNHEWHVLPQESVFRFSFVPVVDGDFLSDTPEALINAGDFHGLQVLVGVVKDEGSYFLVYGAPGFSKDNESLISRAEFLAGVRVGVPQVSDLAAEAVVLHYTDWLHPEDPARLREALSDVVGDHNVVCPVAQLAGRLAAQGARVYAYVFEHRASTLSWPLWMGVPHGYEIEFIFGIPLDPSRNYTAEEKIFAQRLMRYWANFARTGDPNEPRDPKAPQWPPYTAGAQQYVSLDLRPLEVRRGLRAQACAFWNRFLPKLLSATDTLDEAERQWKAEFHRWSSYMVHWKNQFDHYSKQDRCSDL
Reported endpoint: inhibition (%)

Chemical string | Assayed target | Units | Assay result
CN(C1=CC(=O)C(=O)c2ccccc21)c1ccccc1 | Acetylcholinesterase (Homo sapiens) (UniProt P22303) | % | 3
O=C1C=C(Nc2ccc(Cl)cc2)c2ccccc2C1=O | Acetylcholinesterase (Homo sapiens) (UniProt P22303) | % | 23
COc1ccc(N(C)C2=CC(=O)C(=O)c3ccccc32)cc1 | Acetylcholinesterase (Homo sapiens) (UniProt P22303) | % | 1
Cc1ccc(OC2=CC(=O)C(=O)c3ccccc32)cc1 | Acetylcholinesterase (Homo sapiens) (UniProt P22303) | % | 8
CN(C1=CC(=O)C(=O)c2ccccc21)c1ccc(Cl)cc1 | Acetylcholinesterase (Homo sapiens) (UniProt P22303) | % | 4
O=C1C=C(Oc2ccc(I)cc2)c2ccccc2C1=O | Acetylcholinesterase (Homo sapiens) (UniProt P22303) | % | 25
CN(C1=CC(=O)C(=O)c2ccccc21)c1ccc(Br)cc1 | Acetylcholinesterase (Homo sapiens) (UniProt P22303) | % | 12
O=C1C=C(Nc2ccc(F)cc2)c2ccccc2C1=O | Acetylcholinesterase (Homo sapiens) (UniProt P22303) | % | 21
CN(C1=CC(=O)C(=O)c2ccccc21)c1ccc(I)cc1 | Acetylcholinesterase (Homo sapiens) (UniProt P22303) | % | 31
